Target: T1, AFP158/HLA-A*02:01 complex (human)
T1 construct: flowed as analyte in SPR
Experiment: SPR, fold vs AS170036 VL1VH1
Consider the following binders; for each one, report its Affinity increase.
Reply with the number, then its unit.

Record AS170036 VL1VH1-VLH98P (scFv) scFv: QSALTQPRSVSGSPGQSVTISCAGTSSDVGSENYVSWYQQHPGKAPKLMIYQVNKRASGVPDRFSGSKSGNTASLTISGLQAEDEADYYCASYRSSDPNIVFGGGTKLTVLGGGGSGGGGSGGGGSEVQLVESGGGLVQPGGSLRLSCAASGFTFSSYAMSWVRQAPGKGLEWVSTINSGTGSPYYADSVKGRFTISRDNSKNTLYLQMNSLRAEDTAVYYCAKNFFDGSWFLGPPAMDYWGQGTLVTVSSHHHHHH , field Affinity increase: 3.5 fold

Record AS170036 VL1VH1-VHG108M (scFv) scFv: QSALTQPRSVSGSPGQSVTISCAGTSSDVGSENYVSWYQQHPGKAPKLMIYQVNKRASGVPDRFSGSKSGNTASLTISGLQAEDEADYYCASYRSSDHNIVFGGGTKLTVLGGGGSGGGGSGGGGSEVQLVESGGGLVQPGGSLRLSCAASGFTFSSYAMSWVRQAPGKGLEWVSTINSGTGSPYYADSVKGRFTISRDNSKNTLYLQMNSLRAEDTAVYYCAKNFFDGSWFLMPPAMDYWGQGTLVTVSSHHHHHH , field Affinity increase: 4.7 fold

Record AS170036 VL1VH1-VLH98T (scFv) scFv: QSALTQPRSVSGSPGQSVTISCAGTSSDVGSENYVSWYQQHPGKAPKLMIYQVNKRASGVPDRFSGSKSGNTASLTISGLQAEDEADYYCASYRSSDTNIVFGGGTKLTVLGGGGSGGGGSGGGGSEVQLVESGGGLVQPGGSLRLSCAASGFTFSSYAMSWVRQAPGKGLEWVSTINSGTGSPYYADSVKGRFTISRDNSKNTLYLQMNSLRAEDTAVYYCAKNFFDGSWFLGPPAMDYWGQGTLVTVSSHHHHHH , field Affinity increase: 2.9 fold
